- tested_target: Matrix metalloproteinase-9 (Homo sapiens, UniProt P14780)
- Sequence (P14780 whole entry): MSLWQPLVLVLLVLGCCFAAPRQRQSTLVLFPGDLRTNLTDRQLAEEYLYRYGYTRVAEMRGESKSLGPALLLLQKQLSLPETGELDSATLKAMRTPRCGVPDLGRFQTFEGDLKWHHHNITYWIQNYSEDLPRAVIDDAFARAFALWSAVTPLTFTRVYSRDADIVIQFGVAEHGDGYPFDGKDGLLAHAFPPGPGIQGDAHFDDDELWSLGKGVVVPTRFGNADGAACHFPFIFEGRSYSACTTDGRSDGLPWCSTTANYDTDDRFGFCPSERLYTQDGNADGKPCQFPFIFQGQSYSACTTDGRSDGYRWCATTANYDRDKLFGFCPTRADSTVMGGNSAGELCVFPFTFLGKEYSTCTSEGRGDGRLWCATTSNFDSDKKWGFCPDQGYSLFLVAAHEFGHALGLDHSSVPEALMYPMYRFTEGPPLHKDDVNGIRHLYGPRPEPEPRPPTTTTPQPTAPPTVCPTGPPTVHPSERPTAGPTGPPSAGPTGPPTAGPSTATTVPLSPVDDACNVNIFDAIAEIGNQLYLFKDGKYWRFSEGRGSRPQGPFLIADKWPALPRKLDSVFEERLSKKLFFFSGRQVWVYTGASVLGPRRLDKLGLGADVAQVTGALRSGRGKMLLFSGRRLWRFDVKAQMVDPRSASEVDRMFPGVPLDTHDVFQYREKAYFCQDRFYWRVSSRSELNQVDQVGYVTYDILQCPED
observation_type: pIC50
As a rule, pIC50 stands for the negative log10 of the concentration, concentration in M.

Noted for O=C(Cc1cc2ccccc2oc1=O)NO [Inhibitor A] : its pIC50 reads 6.27

====

- tested_target: Disintegrin and metalloproteinase domain-containing protein 17 (Homo sapiens)
- Sequence (P78536 whole entry, the tested form may be a part): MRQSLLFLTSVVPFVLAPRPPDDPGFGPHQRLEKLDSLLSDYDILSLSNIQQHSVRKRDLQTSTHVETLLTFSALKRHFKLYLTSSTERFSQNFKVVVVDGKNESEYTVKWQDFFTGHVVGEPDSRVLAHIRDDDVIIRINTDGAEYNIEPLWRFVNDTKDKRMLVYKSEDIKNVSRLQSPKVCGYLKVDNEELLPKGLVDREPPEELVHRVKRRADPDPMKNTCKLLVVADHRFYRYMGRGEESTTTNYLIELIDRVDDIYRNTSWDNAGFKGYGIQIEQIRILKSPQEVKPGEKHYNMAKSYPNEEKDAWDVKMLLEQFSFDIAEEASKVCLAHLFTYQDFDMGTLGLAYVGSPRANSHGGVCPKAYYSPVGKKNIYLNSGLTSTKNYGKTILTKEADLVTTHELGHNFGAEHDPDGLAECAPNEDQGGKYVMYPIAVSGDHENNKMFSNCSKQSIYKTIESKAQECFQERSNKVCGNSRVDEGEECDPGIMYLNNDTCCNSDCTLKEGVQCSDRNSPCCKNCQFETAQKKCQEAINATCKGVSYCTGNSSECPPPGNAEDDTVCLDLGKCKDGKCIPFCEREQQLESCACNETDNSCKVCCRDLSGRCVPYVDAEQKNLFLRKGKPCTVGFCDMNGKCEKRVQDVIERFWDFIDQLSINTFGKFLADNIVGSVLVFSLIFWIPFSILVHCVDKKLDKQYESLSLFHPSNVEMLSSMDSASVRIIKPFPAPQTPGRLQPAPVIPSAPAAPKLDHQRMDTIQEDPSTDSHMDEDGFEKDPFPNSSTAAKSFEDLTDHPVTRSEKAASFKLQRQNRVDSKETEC
pIC50 listing for selected compounds.
By convention, pIC50 is the negative base-10 log of a molar concentration.

O=C(Cc1cc2ccccc2oc1=O)NO [Inhibitor A]	6.76

Next compound, please.
Form: compound = CNC(=O)[C@H](Cc1c[nH]c2ccccc12)NC(=O)[C@@H](CC(=O)NO)CC(C)C [GM6001] ; pIC50 = 6.50
